# SYSTEM: Grb2 SH2 (UniProt P62993)
# Sequence (P62993 whole entry, looked up, the tested form may be a part): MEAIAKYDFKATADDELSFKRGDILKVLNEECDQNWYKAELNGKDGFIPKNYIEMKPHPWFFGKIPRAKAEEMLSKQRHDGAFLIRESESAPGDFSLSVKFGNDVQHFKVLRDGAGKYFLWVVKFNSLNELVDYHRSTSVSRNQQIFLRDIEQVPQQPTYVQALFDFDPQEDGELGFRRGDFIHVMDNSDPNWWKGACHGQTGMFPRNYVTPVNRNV
# PROCEDURE DETAILS: SH2 binding enrichment of the phosphorylated peptide, bacterial display (enrichment ratio); higher = better substrate or ligand; peptides without Tyr show the background;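 note: peptide library displayed on the E. coli surface as eCPX fusions, selected cells deep-sequenced, score is each peptide's frequency after selection divided by its frequency in the input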
Provide the recorded SH2 binding enrichment for the entries that follow.
Answers are plain numbers.

The examples below pair each entry with its known result.
                     residue_codes  result
0          DGQSVYKLTDF [TBK1_Y153]   0.678
1      SQSPHYFRSGR [GPATCH8_Y1038]   0.731
2         SERNNYSRVAN [CWC22_Y797]   0.747
3  KWHREYNFKYV [RICTOR_Y835_S837F]    1.49
4   DDLTDYLMKIL [ACTA1_Y190_R185D]   0.962
5         CTNPRYLAAGS [RABL3_Y185]   0.767

Continue with the next sequence.
Query string: Under Grb2 SH2 (UniProt P62993): SH2 binding enrichment value of KILAKYLLETS [NAMPT_Y175] ?
Result string: 0.766
